- Target Desc: Cytochrome P450 2C19 (Homo sapiens)
- Sequence (P33261 whole entry): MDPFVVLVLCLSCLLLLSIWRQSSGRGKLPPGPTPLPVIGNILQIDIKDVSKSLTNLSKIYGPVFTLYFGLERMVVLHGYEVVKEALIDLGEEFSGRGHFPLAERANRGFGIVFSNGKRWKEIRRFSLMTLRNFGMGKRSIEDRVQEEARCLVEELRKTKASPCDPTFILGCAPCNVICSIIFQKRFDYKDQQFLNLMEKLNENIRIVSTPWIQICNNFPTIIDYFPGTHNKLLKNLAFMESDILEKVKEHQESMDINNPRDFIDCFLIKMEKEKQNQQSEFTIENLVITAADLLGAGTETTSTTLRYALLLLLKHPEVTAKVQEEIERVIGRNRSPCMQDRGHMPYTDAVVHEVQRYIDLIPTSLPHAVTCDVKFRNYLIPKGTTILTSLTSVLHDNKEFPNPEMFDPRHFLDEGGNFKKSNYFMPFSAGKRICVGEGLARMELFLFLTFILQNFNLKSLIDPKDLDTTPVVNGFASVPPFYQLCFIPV
So I've got a bunch of molecules here, and I need their IC50 values.
Your answer is read as µM, so omit the unit and give the number.

Recorded result, `O=C(NCC1(O)CCCCC1)c1cnc(Nc2cccc(Cl)c2)nc1C(F)(F)F` , IC50: 17

Recorded result, `O=C(NCC1CCOCC1)c1cnc(Nc2cc(F)cc(F)c2)nc1C(F)(F)F` , IC50: 91

Recorded result, `O=C(NCc1ccc(F)cc1)c1cnc(Nc2cccc(Cl)c2)nc1C(F)(F)F` , IC50: 12

Recorded result, `O=C(NCC1CCC1)c1cnc(Nc2cccc(Cl)c2)nc1C(F)(F)F` , IC50: 8

Recorded result, `O=C(NCC1CCOCC1)c1cnc(Nc2cccc(Cl)c2)nc1C(F)(F)F` , IC50: 56

Recorded result, `O=C(NCC1CCOCC1)c1cnc(Nc2cc(Cl)cc(Cl)c2)nc1C(F)(F)F` , IC50: 14

Recorded result, `O=C(NCC1CCCCC1)c1cnc(Nc2cccc(Cl)c2)nc1C(F)(F)F` , IC50: 19

Recorded result, `O=C(NCC1CCCC1)c1cnc(Nc2cccc(Cl)c2)nc1C(F)(F)F` , IC50: 14

Recorded result, `O=C(NCc1ccncc1)c1cnc(Nc2cccc(Cl)c2)nc1C(F)(F)F` , IC50: 1.9

====

- Assay Overview: Drug concentration in blood of rat FCA model of inflammatory pain at 0.1 mg/kg, po after 1hr
- Assay type: ADME, organism-based
- Design: dose 0.1 mg/kg, route oral
- Condition: read-out: Activity
Observed Property: concentration at 1 h

Recorded result, O=C(NCC1CCOCC1)c1cnc(Nc2ccc(Cl)cc2Cl)nc1C(F)(F)F [GW842166X] , concentration at 1 h: 0.13 µM

====

- Target Desc: Cannabinoid receptor 2 (Homo sapiens)
- Sequence (P34972 whole entry): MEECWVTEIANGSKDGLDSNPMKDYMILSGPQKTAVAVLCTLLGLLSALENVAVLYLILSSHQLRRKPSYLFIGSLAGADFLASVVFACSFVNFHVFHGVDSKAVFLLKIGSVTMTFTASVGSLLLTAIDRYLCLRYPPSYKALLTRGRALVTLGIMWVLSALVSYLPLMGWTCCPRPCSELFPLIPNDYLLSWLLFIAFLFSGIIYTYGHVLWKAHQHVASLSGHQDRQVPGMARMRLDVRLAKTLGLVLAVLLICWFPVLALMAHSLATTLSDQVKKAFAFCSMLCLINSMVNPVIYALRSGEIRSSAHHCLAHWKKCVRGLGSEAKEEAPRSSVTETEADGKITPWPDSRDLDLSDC
- Assay Overview: Agonist activity at human recombinant CB2 receptor expressed in Saccharomyces cerevisiae cells
- Type: functional, cell-based
Observed Property: pEC50
# pEC50 = -log10(concentration in molar units)

Recorded result, `COc1ccc(Nc2ncc(C(=O)NCc3ccccc3)c(C(F)(F)F)n2)cc1` , pEC50: 6.70

Recorded result, `O=C(NCC1CCOCC1)c1cnc(Nc2ccc(F)cc2F)nc1C(F)(F)F` , pEC50: 6.20

Recorded result, `O=C(NCC1CCCC1)c1cnc(Nc2cccc(Cl)c2)nc1C(F)(F)F` , pEC50: 7.10

Recorded result, `O=C(NCc1ccccc1)c1cnc(Nc2ccccc2Cl)nc1C(F)(F)F` , pEC50: 6.60

Recorded result, `O=C(NCc1cccc(Cl)c1)c1cnc(Nc2cccc(Cl)c2)nc1C(F)(F)F` , pEC50: 5.80

Recorded result, `O=C(NCc1ccc(Cl)cc1)c1cnc(Nc2cccc(Cl)c2)nc1C(F)(F)F` , pEC50: 6.40

Recorded result, `O=C(NCc1ccccc1)c1cnc(Nc2cccc(Cl)c2)nc1C(F)(F)F` , pEC50: 6.61

Recorded result, `O=C(NCC1CCCCC1)c1cnc(Nc2cccc(Cl)c2)nc1C(F)(F)F` , pEC50: 7.10

Recorded result, `O=C(NCC1CCOCC1)c1cnc(Nc2c(Cl)cccc2Cl)nc1C(F)(F)F` , pEC50: 6.20

Recorded result, `O=C(OCc1ccco1)c1cnc(N2CCOCC2)nc1C(F)(F)F` , pEC50: 6.20

Recorded result, `O=C(NCC1CCOCC1)c1cnc(Nc2ccc(Cl)cc2F)nc1C(F)(F)F` , pEC50: 6.70

Recorded result, `O=C(NCc1ccco1)c1cnc(Nc2ccccc2)nc1C(F)(F)F` , pEC50: 6.20

Recorded result, `O=C(NCC1CCOCC1)c1cnc(Nc2cc(Cl)ccc2F)nc1C(F)(F)F` , pEC50: 6.90

Recorded result, `O=C(NCC1CCNCC1)c1cnc(Nc2cccc(Cl)c2)nc1C(F)(F)F` , pEC50: 5.30

Recorded result, `O=C(NCC1CCOCC1)c1cnc(Nc2cc(Cl)ccc2Cl)nc1C(F)(F)F` , pEC50: 7.00

Recorded result, `O=C(NCc1ccccc1Cl)c1cnc(Nc2cccc(Cl)c2)nc1C(F)(F)F` , pEC50: 5.00

Recorded result, `N#Cc1ccc(Nc2ncc(C(=O)NCc3ccccc3)c(C(F)(F)F)n2)cc1` , pEC50: 6.40

Recorded result, `N#Cc1cccc(Nc2ncc(C(=O)NCc3ccccc3)c(C(F)(F)F)n2)c1` , pEC50: 6.34

Recorded result, `O=C(NCc1ccccc1)c1cnc(Nc2cccc(Br)c2)nc1C(F)(F)F` , pEC50: 6.64

Recorded result, `O=C(NCC1CCOCC1)c1cnc(Nc2cc(Cl)cc(Cl)c2)nc1C(F)(F)F` , pEC50: 7.48

Recorded result, `O=C(NCC1CCOCC1)c1cnc(Nc2cccc(Cl)c2Cl)nc1C(F)(F)F` , pEC50: 7.10

Recorded result, `O=C(NCC1(O)CCCCC1)c1cnc(Nc2cccc(Cl)c2)nc1C(F)(F)F` , pEC50: 6.90

Recorded result, `O=C(NCC1CCOCC1)c1cnc(Nc2cccc(Cl)c2)nc1C(F)(F)F` , pEC50: 7.30

Recorded result, `O=C(NCC1CCOCC1)c1cnc(Nc2ccc(F)cc2Cl)nc1C(F)(F)F` , pEC50: 6.40

Recorded result, `COc1cccc(Nc2ncc(C(=O)NCc3ccccc3)c(C(F)(F)F)n2)c1` , pEC50: 6.33

Recorded result, `O=C(NCC1CCC1)c1cnc(Nc2cccc(Cl)c2)nc1C(F)(F)F` , pEC50: 7.40

Recorded result, `O=C(NCc1ccncc1)c1cnc(Nc2cccc(Cl)c2)nc1C(F)(F)F` , pEC50: 7.22

Recorded result, O=C(NCC1CCOCC1)c1cnc(Nc2ccc(Cl)cc2Cl)nc1C(F)(F)F [GW842166X] , pEC50: 7.20

Recorded result, `O=C(NCc1ccccc1)c1cnc(Nc2ccc(Cl)cc2)nc1C(F)(F)F` , pEC50: 6.90

Recorded result, `O=C(NCc1ccccc1)c1cnc(Nc2ccccc2)nc1C(F)(F)F` , pEC50: 6.40

Recorded result, `N#Cc1ccc(CNC(=O)c2cnc(Nc3cccc(Cl)c3)nc2C(F)(F)F)cc1` , pEC50: 6.66

Recorded result, `O=C(NCc1ccc(F)cc1)c1cnc(Nc2cccc(Cl)c2)nc1C(F)(F)F` , pEC50: 7.20

Recorded result, `O=C(NCc1ccccc1)c1cnc(Nc2cccc(F)c2)nc1C(F)(F)F` , pEC50: 6.51

Recorded result, `O=C(NCC1CCOCC1)c1cnc(Nc2cccc(F)c2F)nc1C(F)(F)F` , pEC50: 6.40

Recorded result, `COc1ccccc1Nc1ncc(C(=O)NCc2ccccc2)c(C(F)(F)F)n1` , pEC50: 6.80

Recorded result, `O=C(NCC1CCOCC1)c1cnc(Nc2cc(F)cc(F)c2)nc1C(F)(F)F` , pEC50: 6.90

====

So I've got a bunch of compounds here, and I need their IC50 values.
- Target Desc: UniProt P05177
- Sequence (P05177 whole entry): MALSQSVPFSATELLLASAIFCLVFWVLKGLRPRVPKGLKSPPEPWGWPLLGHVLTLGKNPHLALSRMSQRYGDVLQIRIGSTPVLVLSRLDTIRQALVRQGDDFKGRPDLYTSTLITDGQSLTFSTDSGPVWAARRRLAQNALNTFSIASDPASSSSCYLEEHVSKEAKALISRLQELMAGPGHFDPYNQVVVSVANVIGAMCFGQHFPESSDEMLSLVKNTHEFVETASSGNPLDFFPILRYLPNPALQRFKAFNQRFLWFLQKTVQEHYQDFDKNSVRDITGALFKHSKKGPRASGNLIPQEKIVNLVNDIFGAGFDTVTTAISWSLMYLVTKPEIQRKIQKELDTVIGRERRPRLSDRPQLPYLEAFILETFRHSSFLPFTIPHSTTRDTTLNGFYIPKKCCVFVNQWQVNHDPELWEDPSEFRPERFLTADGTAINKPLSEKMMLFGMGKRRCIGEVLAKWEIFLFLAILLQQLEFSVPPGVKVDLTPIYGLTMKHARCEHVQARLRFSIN
Your answer is read as µM, so omit the unit and give the number.

Recorded result, `O=C(NCc1ccncc1)c1cnc(Nc2cccc(Cl)c2)nc1C(F)(F)F` , IC50: 0.4

Recorded result, `O=C(NCc1ccc(F)cc1)c1cnc(Nc2cccc(Cl)c2)nc1C(F)(F)F` , IC50: 8

Recorded result, `O=C(NCC1(O)CCCCC1)c1cnc(Nc2cccc(Cl)c2)nc1C(F)(F)F` , IC50: 11

====

- Target Desc: Cytochrome P450 2D6 (Homo sapiens, UniProt P10635)
- Sequence (P10635 whole entry): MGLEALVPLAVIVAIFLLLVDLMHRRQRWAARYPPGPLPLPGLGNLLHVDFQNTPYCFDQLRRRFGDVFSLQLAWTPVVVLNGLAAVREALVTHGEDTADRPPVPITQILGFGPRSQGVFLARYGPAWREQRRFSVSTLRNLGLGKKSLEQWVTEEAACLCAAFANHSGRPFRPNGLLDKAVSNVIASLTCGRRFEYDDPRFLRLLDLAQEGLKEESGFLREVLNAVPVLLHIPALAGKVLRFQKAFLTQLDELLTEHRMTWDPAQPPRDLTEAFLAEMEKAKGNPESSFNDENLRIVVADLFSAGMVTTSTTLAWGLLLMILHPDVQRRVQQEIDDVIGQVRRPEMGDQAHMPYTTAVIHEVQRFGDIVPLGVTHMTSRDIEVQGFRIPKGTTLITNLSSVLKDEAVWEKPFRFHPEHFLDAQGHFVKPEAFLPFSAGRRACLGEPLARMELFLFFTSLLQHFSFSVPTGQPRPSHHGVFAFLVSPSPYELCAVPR
- Assay Overview: Inhibition of human CYP2D6
- Type: ADME
So I've got a bunch of compounds here, and I need their IC50 values.
Your answer is read as µM, so omit the unit and give the number.

Recorded result, `O=C(NCc1ccc(F)cc1)c1cnc(Nc2cccc(Cl)c2)nc1C(F)(F)F` , IC50: 1.5

Recorded result, `O=C(NCC1(O)CCCCC1)c1cnc(Nc2cccc(Cl)c2)nc1C(F)(F)F` , IC50: 13

Recorded result, `O=C(NCC1CCOCC1)c1cnc(Nc2cc(Cl)cc(Cl)c2)nc1C(F)(F)F` , IC50: 27

Recorded result, `O=C(NCC1CCOCC1)c1cnc(Nc2cccc(Cl)c2)nc1C(F)(F)F` , IC50: 51
